tested on: 991263-137-R1-J2-PDC complex spheroid viability; experiment: Anticancer human tumor 991263-137-R1-J2-PDC patient-derived colon adenocarcinoma cell line growth inhibition [POLQ]; conditions: curve of first compound; second compound 0.1 µM
pIC50: −log10 of the molar value.

{"compound": "CCc1cc2c(N3CCc4c(cc(Cn5ccnc5)cc4-c4cn(C)nc4C(F)(F)F)C3=O)ccnc2c(OC)n1 + COC1C(OC(N)=O)C(O)C(Oc2ccc3c(O)c(NC(=O)c4ccc(O)c(CC=C(C)C)c4)c(=O)oc3c2C)OC1(C)C", "sign qualifier": "<", "pIC50": 5.00}
{"compound": "CC(=O)O[C@H]1C(=O)[C@@]2(C)[C@H]([C@H](OC(=O)c3ccccc3)[C@]3(O)C[C@H](OC(=O)[C@H](O)[C@@H](NC(=O)c4ccccc4)c4ccccc4)C(C)=C1C3(C)C)[C@]1(OC(C)=O)CO[C@@H]1C[C@@H]2O + COC1C(OC(N)=O)C(O)C(Oc2ccc3c(O)c(NC(=O)c4ccc(O)c(CC=C(C)C)c4)c(=O)oc3c2C)OC1(C)C", "sign qualifier": "=", "pIC50": 5.71}
{"compound": "CCc1c2c(nc3ccc(O)cc13)-c1cc3c(c(=O)n1C2)COC(=O)[C@]3(O)CC + COC1C(OC(N)=O)C(O)C(Oc2ccc3c(O)c(NC(=O)c4ccc(O)c(CC=C(C)C)c4)c(=O)oc3c2C)OC1(C)C", "sign qualifier": "=", "pIC50": 7.26}
{"compound": "CCc1c2c(nc3ccc(O)cc13)-c1cc3c(c(=O)n1C2)COC(=O)[C@]3(O)CC + Nc1ccc(C#CCN(C(=O)Cc2ncc(C(F)(F)F)cc2C(F)(F)F)c2ccc(F)cc2)nn1", "sign qualifier": "=", "pIC50": 7.21}

###

tested on: 991263-137-R1-J2-PDC complex spheroid viability; test: Anticancer human tumor 991263-137-R1-J2-PDC cell line growth inhibition [POLQ]; conditions: second compound 10 µM; first compound 1 µM; stronger effect = lower value;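 further: spheroids exposed to compounds for 7 days before readout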;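 on viability, T/C: 100% = DMSO vehicle control viability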

{"compound": "CNCc1ccc(-c2[nH]c3cc(F)cc4c3c2CCNC4=O)cc1 + COC1C(OC(N)=O)C(O)C(Oc2ccc3c(O)c(NC(=O)c4ccc(O)c(CC=C(C)C)c4)c(=O)oc3c2C)OC1(C)C", "viability, T/C / %": 102}
{"compound": "CCc1cc2c(N3CCc4c(cc(Cn5ccnc5)cc4-c4cn(C)nc4C(F)(F)F)C3=O)ccnc2c(OC)n1 + Cc1cccc(N(C)C(=O)C2C(O)CCN2c2nc(C)cc(C(F)(F)F)c2C#N)c1", "viability, T/C / %": 89.9}
{"compound": "O=C(c1cc(Cc2n[nH]c(=O)c3ccccc23)ccc1F)N1CCN(C(=O)C2CC2)CC1 + Cc1cccc(N(C)C(=O)C2C(O)CCN2c2nc(C)cc(C(F)(F)F)c2C#N)c1", "viability, T/C / %": 100}
{"compound": "COc1cc(C2c3cc4c(cc3C(OC3OC5COC(C)OC5C(O)C3O)C3COC(=O)C23)OCO4)cc(OC)c1O (stereo unspecified) + Cc1cccc(N(C)C(=O)C2C(O)CCN2c2nc(C)cc(C(F)(F)F)c2C#N)c1", "viability, T/C / %": 89.1}
{"compound": "CC1COCCN1c1cc(C2(O)CC3CCC(C2)O3)c2cnn(-c3ccn[nH]3)c2n1 (stereo unspecified) + COC1C(OC(N)=O)C(O)C(Oc2ccc3c(O)c(NC(=O)c4ccc(O)c(CC=C(C)C)c4)c(=O)oc3c2C)OC1(C)C", "viability, T/C / %": 56.4}
{"compound": "C#Cc1c(F)ccc2cc(O)cc(-c3ncc4c(N5CC6CCC(C5)N6)nc(OCC56CCCN5CC(F)C6)nc4c3F)c12 (stereo unspecified) + Cc1cccc(N(C)C(=O)C2C(O)CCN2c2nc(C)cc(C(F)(F)F)c2C#N)c1", "viability, T/C / %": 90.1}
{"compound": "COc1cc(C2c3cc4c(cc3C(OC3OC5COC(C)OC5C(O)C3O)C3COC(=O)C23)OCO4)cc(OC)c1O (stereo unspecified) + Nc1ccc(C#CCN(C(=O)Cc2ncc(C(F)(F)F)cc2C(F)(F)F)c2ccc(F)cc2)nn1", "viability, T/C / %": 68.8}
{"compound": "CC1COCCN1c1cc(C2(S(C)(=N)=O)CC2)nc(-c2ccnc3[nH]ccc23)n1 (stereo unspecified) + Nc1ccc(C#CCN(C(=O)Cc2ncc(C(F)(F)F)cc2C(F)(F)F)c2ccc(F)cc2)nn1", "viability, T/C / %": 99.5}
{"compound": "O=c1[nH]cc(F)c(=O)[nH]1 + Cc1cccc(N(C)C(=O)C2C(O)CCN2c2nc(C)cc(C(F)(F)F)c2C#N)c1", "viability, T/C / %": 70}
{"compound": "COc1cc2cc(C(=O)CCC(=O)O)sc2cc1OC + Nc1ccc(C#CCN(C(=O)Cc2ncc(C(F)(F)F)cc2C(F)(F)F)c2ccc(F)cc2)nn1", "viability, T/C / %": 94.7}
{"compound": "CCc1c2c(nc3ccc(O)cc13)-c1cc3c(c(=O)n1C2)COC(=O)[C@]3(O)CC + Nc1ccc(C#CCN(C(=O)Cc2ncc(C(F)(F)F)cc2C(F)(F)F)c2ccc(F)cc2)nn1", "viability, T/C / %": 24.5}
